experimental_details: BSK_BT_PBMCCytotoxicity: PBMC Cytotoxicity Assessment in the BioMAP Diversity Plus: BT Assay (AID 2284225);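 further: PBMC viability measured by Alamar Blue dye reduction fluorescence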
condition_summary: primary human B cells with PBMC
Activity calls are given as the source filed them. How the source made its calls: active means hit-call score of the fitted dose curve at least 0.9, where 1 is the maximum; inactive means score below 0.9.
Classes used: T for active, F for inactive

* Nc1c(Oc2ccccc2)cc(O)c2c1C(=O)c1ccccc1C2=O | F
* Cc1cc(C(C)(C)c2ccc(O)c(C)c2)ccc1O | F
* O=c1oc2ccccc2c(O)c1C(CC(O)c1ccc(-c2ccc(Br)cc2)cc1)c1ccccc1 (configuration not stated) | F
* c1ccc2sc(SNC3CCCCC3)nc2c1 | T
* CCOP(=O)(OCC)SCCSCC | F
* O=C1C=CC(=O)c2ccccc21 | T
* CCOP(=S)(OCC)OP(=S)(OCC)OCC | F
* N#CCCC(Br)(C#N)CBr (configuration not stated) | T
* C[C@]12CC[C@@H](O)C[C@@H]1CC[C@@H]1[C@@H]2CC[C@]2(C)C(=O)CC[C@@H]12 | F
* CC1(C)[C@H](C(=O)O[C@H](C#N)c2cccc(Oc3ccccc3)c2)[C@@H]1/C=C(\Cl)C(F)(F)F | F
* Cc1ccc2nc3sc(=O)sc3nc2c1 | F
* Cc1cccc(OP(=O)(Oc2cccc(C)c2)Oc2cccc(C)c2)c1 | F
* Cc1ccccc1OP(=O)(Oc1ccccc1)Oc1ccccc1 | F
* O=S(=O)(c1ccc(Cl)cc1)c1cc(Cl)c(Cl)cc1Cl | F
* COCC(=O)N(c1c(C)cccc1C)[C@H](C)C(=O)OC | F
* Cc1cc(Cl)ccc1OC(C)C(=O)O (configuration not stated) | F
* CC(C=O)Cc1ccc2c(c1)OCO2 (configuration not stated) | F
* NC(=O)CCl | F
* Cc1ccccc1OP(=O)(Oc1ccccc1C)Oc1ccccc1C | F
* [Cl][Sn]([c]1ccccc1)([c]1ccccc1)[c]1ccccc1 | T
* CCCCN(CCCC)C(=S)[S-].CCCCN(CCCC)C(=S)[S-].[Ni+2] | F
* CC(C)(COCC1CO1)COCC1CO1 (configuration not stated) | F
* CCOC(=O)CC(=O)CCl | T
* CCOC(=O)C(SP(=S)(OC)OC)c1ccccc1 (configuration not stated) | F
* O=C(O)COc1cc(Cl)c(Cl)cc1Cl | F
* Oc1ccc(Cc2ccc(O)cc2)cc1 | F
* CCOP(=O)(OCC)OC(=CCl)c1ccc(Cl)cc1Cl | F

* * *

measured_on: Cellular tumor antigen p53 (Homo sapiens)
experimental_details: TOX21_p53_BLA_p5_ratio: Tox21 HCT-116 p53 Agonism Beta-lactamase Assay, Ratio, Phase 5 (AID 2283599)
Records with an inconclusive call do not appear. The source made the active and inactive calls. How the source made its calls: active means hit-call score of the fitted dose curve at least 0.9, where 1 is the maximum; inconclusive means response in the unintended direction; inactive means score below 0.9.
Classes used: 1.0 (active), 0.0 (inactive)

• COP(=S)(OC)Oc1cc(Cl)c(I)cc1Cl = 0.0
• Cc1ccccc1OP(=O)(Oc1ccccc1C)Oc1ccccc1C = 0.0
• Clc1cc(C(Cl)(Cl)Cl)cnc1Cl = 0.0
• CCCCCCCCCCCCBr = 0.0
• Cc1cc(Cl)ccc1OCCCC(=O)O = 0.0
• CC(C)(C#N)N=NC(C)(C)C#N = 0.0
• C=C(C)[C@@H]1CC=C(C=O)CC1 = 0.0
• CCCCCCCCCCCCCCC(Br)C(=O)O (stereo not drawn) = 1.0
• C=CC(=O)[O][Sn]([CH2]CCC)([CH2]CCC)[CH2]CCC = 1.0
• N#Cc1ccc(Cl)cc1 = 0.0
• CC(C)[C@@H](Nc1ccc(C(F)(F)F)cc1Cl)C(=O)OC(C#N)c1cccc(Oc2ccccc2)c1 (stereo partly drawn) = 0.0
• N#Cc1ccncc1 = 0.0
• OCC(c1ccc(Cl)cc1)c1ccc(Cl)cc1 = 1.0
• N#CS = 0.0
• CC(c1ccc(O)cc1)c1ccc(O)cc1 = 0.0
• C#C[C@]1(O)CC[C@H]2[C@@H]3CCC4=CC(=O)CC[C@]4(C)[C@H]3CC[C@@]21C = 0.0
• O=C(NC(=O)c1c(F)cccc1F)Nc1cc(Cl)c(F)c(Cl)c1F = 0.0
• Clc1cnc(Oc2ccc(Oc3ncc(Cl)cc3Cl)cc2)c(Cl)c1 = 0.0
• C=CCN=C=S = 0.0
• COc1ccc(N)cc1 = 0.0
• CC1(C)[C@H](/C=C2\CCSC2=O)[C@@H]1C(=O)OCc1coc(Cc2ccccc2)c1 = 0.0
• Cl[C@H]1OCCO[C@@H]1Cl = 0.0
• C=CCCl = 0.0

Where do these numbers come from? They come from PubChem BioAssay (EPA / NIEHS).
